Experiment: Displacement of biotin-labeled pep-JIP11 from JNK at 100 uM by DELFIA assay
The source made the active and inactive calls. The rule behind the calls is not given here.
attribute-measured: inhibition

Below, 6 compounds whose answers are already recorded.
chemical-structure	attribute-measured	experimental-result
O=[N+]([O-])c1cccc(CSc2nnc(SCc3cccc([N+](=O)[O-])c3)s2)c1	inhibition	inactive
O=[N+]([O-])c1ccc(Sc2nnc(O)n2-c2ccccc2)s1	inhibition	55%
O=[N+]([O-])c1ccc(CSc2nnc(SCc3ccc([N+](=O)[O-])cc3)s2)cc1	inhibition	inactive
Fc1ccc(CSc2nnc(SCc3ccc(F)cc3)s2)cc1	inhibition	inactive
CCCCSc1nnc(O)n1-c1ccccc1	inhibition	inactive
COc1ccc(CSc2nnc(SCc3ccc(OC)cc3)s2)cc1	inhibition	inactive

Give the reported value of inhibition for this record: O=[N+]([O-])c1cnc(Sc2nnc(O)n2-c2ccc(F)c(F)c2)s1
73%

Give the reported value of inhibition for this record: c1ccc(CSc2nnc(SCc3ccccc3)s2)cc1
inactive

Give the reported value of inhibition for this record: CCSc1nnc(O)n1-c1ccccc1
inactive

Give the reported value of inhibition for this record: O=C(Nc1nnc(Sc2ncc([N+](=O)[O-])s2)s1)c1ccc(F)cc1
inactive

Give the reported value of inhibition for this record: Oc1nnc(SCc2ccccc2)n1-c1ccc2c(c1)OCCO2
inactive
